- Tested on: UniProtKB P30969
- Sequence (P30969 whole entry): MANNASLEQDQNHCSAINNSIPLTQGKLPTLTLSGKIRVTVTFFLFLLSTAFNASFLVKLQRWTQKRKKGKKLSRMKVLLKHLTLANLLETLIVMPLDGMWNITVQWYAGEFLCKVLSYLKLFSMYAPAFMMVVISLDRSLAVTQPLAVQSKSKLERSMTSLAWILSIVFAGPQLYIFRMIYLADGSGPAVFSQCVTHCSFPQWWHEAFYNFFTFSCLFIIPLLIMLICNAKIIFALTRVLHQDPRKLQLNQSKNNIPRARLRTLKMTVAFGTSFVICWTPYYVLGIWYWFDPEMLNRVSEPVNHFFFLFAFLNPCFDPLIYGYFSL
Experimental readout: IC50 (nM)

Worked examples follow.
CC(C)c1nc2cc(S(=O)(=O)NCc3ccc(F)cc3)ccc2n1Cc1ccccc1
690
CC(C)(C)NC(=O)NCCc1nc2cc(S(=O)(=O)NCc3ccc(Cl)cc3Cl)ccc2n1Cc1ccccc1
14
CC(C)(C)NC(=O)NCCCc1nc2cc(S(=O)(=O)NCc3ccc(F)cc3)ccc2n1Cc1ccccc1
83
CC(C)(C)NC(=O)NCCc1nc2cc(S(=O)(=O)NCc3ccc(F)cc3)ccc2n1Cc1ccccc1
12
CC(C)(C)NC(=O)NCCc1nc2cc(S(=O)(=O)NCc3ccccc3)ccc2n1Cc1ccccc1
310
O=S(=O)(NCc1ccc(F)cc1)c1ccc2c(c1)nc(C1CC1)n2Cc1ccccc1
1600

A. CCNC(=O)NCCc1nc2cc(S(=O)(=O)NCc3ccc(F)cc3)ccc2n1Cc1ccccc1
B. CC(C)(C)NC(=O)NCCc1nc2cc(S(=O)(=O)NCc3ccc(F)c(F)c3)ccc2n1Cc1ccccc1
**Q:** A or B : whose IC50 is greater? Write the label of whichever entry you select.
**A:** A
(A: 380 nM, B: 110 nM)

---

- Tested on: Gonadotropin-releasing hormone receptor (Homo sapiens, UniProt P30968)
- Sequence (P30968 whole entry): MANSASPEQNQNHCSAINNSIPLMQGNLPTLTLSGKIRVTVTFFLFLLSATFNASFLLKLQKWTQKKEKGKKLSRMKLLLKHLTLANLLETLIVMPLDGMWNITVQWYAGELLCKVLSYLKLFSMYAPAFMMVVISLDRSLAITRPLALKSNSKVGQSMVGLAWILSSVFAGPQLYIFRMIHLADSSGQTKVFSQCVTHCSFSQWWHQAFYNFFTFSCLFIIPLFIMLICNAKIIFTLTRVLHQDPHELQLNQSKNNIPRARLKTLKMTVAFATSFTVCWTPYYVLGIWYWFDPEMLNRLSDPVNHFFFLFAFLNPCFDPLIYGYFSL
pIC50: −log10 of the molar value.
Experimental readout: pIC50

Worked examples follow.
CC(C)(C)OC(=O)NCCc1nc2cc(S(=O)(=O)NCc3ccc(F)cc3)ccc2n1Cc1ccccc1
6.13
O=S(=O)(NCc1ccc(F)cc1)c1ccc2c(c1)nc(C1CC1)n2Cc1ccccc1
5.72
CC(C)c1nc2cc(S(=O)(=O)NCc3ccc(F)cc3)ccc2n1Cc1ccccc1
6.41

P. COc1ccc(CNS(=O)(=O)c2ccc3c(c2)nc(CCNC(=O)NC(C)(C)C)n3Cc2ccccc2)cc1
Q. CC(C)(C)NC(=O)NCCc1nc2cc(S(=O)(=O)NCc3ccc(F)cc3)ccc2n1Cc1ccccc1
R. CCNC(=O)NCCc1nc2cc(S(=O)(=O)NCc3ccc(F)cc3)ccc2n1Cc1ccccc1
**Q:** Arrange the 3 entries by pIC50 so the values rise. Record the ranking as a list of labels in the requested order.
**A:** R, P, Q
(R: 6.16, P: 6.47, Q: 7.70)

---

pIC50: −log10 of the molar value.
As an illustration, consider measured pIC50 for molecules on Gonadotropin-releasing hormone receptor (Rattus norvegicus, UniProt P30969).
Experimental readout: pIC50

Worked examples follow.
CC(C)(C)NC(=O)NCCc1nc2cc(S(=O)(=O)NCc3ccccc3F)ccc2n1Cc1ccccc1
6.35
CC(C)(C)NC(=O)NCCc1nc2cc(S(=O)(=O)NCc3ccc(Cl)cc3)ccc2n1Cc1ccccc1
8.41

I. CC(C)(C)OC(=O)NCCc1nc2cc(S(=O)(=O)NCc3ccc(F)cc3)ccc2n1Cc1ccccc1
II. O=C(NCCc1nc2cc(S(=O)(=O)NCc3ccc(F)cc3)ccc2n1Cc1ccccc1)Nc1ccccc1Cl
**Q:** Of the pair I and II , name the member with the lesser recorded pIC50. Write the label of whichever entry you select.
**A:** I
